Reference source for all entries: patent US11492335B2

Biological target: recombinant human MAO-A (monoamine oxidase-A) (Homo sapiens, UniProt P21397)
Construct: purchased Sigma-Aldrich
Sequence (P21397 whole entry): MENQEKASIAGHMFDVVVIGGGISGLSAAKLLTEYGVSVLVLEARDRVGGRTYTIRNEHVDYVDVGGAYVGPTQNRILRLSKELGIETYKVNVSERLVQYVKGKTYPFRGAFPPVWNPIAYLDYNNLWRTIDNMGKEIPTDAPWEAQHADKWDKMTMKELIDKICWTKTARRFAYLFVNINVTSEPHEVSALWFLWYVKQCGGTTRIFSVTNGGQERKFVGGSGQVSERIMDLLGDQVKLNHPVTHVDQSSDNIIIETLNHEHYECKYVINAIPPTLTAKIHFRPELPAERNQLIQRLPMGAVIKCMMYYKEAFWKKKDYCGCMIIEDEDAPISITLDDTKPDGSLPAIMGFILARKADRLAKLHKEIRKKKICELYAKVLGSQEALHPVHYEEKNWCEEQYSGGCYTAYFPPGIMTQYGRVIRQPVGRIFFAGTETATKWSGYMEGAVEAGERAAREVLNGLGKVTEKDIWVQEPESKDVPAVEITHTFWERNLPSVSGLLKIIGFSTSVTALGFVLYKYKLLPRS
Assay: Activity on recombinant human MAO-A, Amplex Red method, 0.5 mM tyramine substrate
Assay type: biochemical
Conditions: 0.5 mM tyramine substrate, read-out: Inhibitory Activity (IC50, nM) MAO-A
Where a name gives a salt, the structure may show the parent alone.
READOUT_LABEL: IC50

Entry NC/C(=C\F)Cn1ncn(-c2cccc(/C=C/c3cnc4c(c3)NC(=O)CO4)n2)c1=O [Example 241, hydrochloride] , IC50 reported as > 100000 nM

Per the record, NC/C(=C\F)Cn1ncn(-c2cnc(-c3ccc(N4CCOCC4)nc3)cn2)c1=O [Example 221] has IC50 of > 100000 nM

NC/C(=C\F)Cn1ncn(-c2cccc(/C=C/c3cnc4[nH]c(=O)oc4c3)n2)c1=O [Example 242, hydrochloride] has a reported IC50 of > 100000 nM

CN(C)c1cccc(-c2cccc(-n3cnn(C/C(=C/F)CN)c3=O)n2)c1 [Example 174, hydrochloride] yielded IC50 of > 100000 nM

Here's the next entry for you.
The molecule listed as NC/C(=C\F)Cn1ncn(-c2cccc(-c3ccc4c(c3)NC(=O)CO4)n2)c1=O [Example 199, hydrochloride] has a reported IC50 of > 100000 nM
